Recorded Stability in Powder Concentrate (content by LCMSMS) values for a group of compounds are listed next.
Type: physicochemical
Experimental Context: stored at room temperature (21-25° C.), day 10
Reported Endpoint: Stability in Powder Concentrate (content by LCMSMS) (mg/g powder)

> print(dat)
                                    compound  recorded.value
 1  CC(=O)Oc1c(C)c(C)c2c(c1C)CCC(C)(CCC[C@H](C)CCC[C@H](C)CCCC(C)C)O2 (stereo partly drawn) [α-Tocopheryl acetate]            2.09
 2  CCCCCc1cc(O)c2c(c1)OC(C)(C)c1ccc(C)cc1-2           0.499
 3  Cc1c(C)c2c(c(C)c1OC(=O)CCC(=O)O)CC[C@@](C)(CCC[C@H](C)CCC[C@H](C)CCCC(C)C)O2 [α-Tocopheryl succinate]            1.87
 4  CCCCCc1cc(O)c2c(c1)OC1(C)CCC3C1C2C3(C)C (stereo not shown)           0.050
 5  CCCCCc1cc(O)c2c(c1)OC(C)(CCC=C(C)C)C=C2 (stereo not shown)           0.071
 6  CCCCCc1cc(O)c2c(c1)OC(C)(C)[C@@H]1CCC(C)=C[C@@H]21 [D9 THC, delta-9-tetrahydrocannabinol, reference compound]            2.60
 7  Cc1c(C)c2c(c(C)c1O)CC[C@@](C)(CCC[C@H](C)CCC[C@H](C)CCCC(C)C)O2            4.77
 8  CCCc1cc(O)c2c(c1)OC(C)(C)[C@@H]1CCC(C)=C[C@@H]21 [THCV, delta-9-tetrahydrocannabivarin]           0.706
 9  CCCCCc1cc2c(c(O)c1C(=O)O)[C@@H]1C=C(C)CC[C@H]1C(C)(C)O2 [D9 THCA, delta-9-tetrahydrocannabinolic acid]           0.148
10  C=C(C)[C@@H]1CCC(C)=C[C@H]1c1c(O)cc(CCC)cc1O           0.050
11  C=C(C)[C@@H]1CCC(C)=C[C@H]1c1c(O)cc(CCCCC)cc1O [CBD, cannabidiol, reference compound]            5.69
12   CCCCCc1cc(O)c(C/C=C(\C)CCC=C(C)C)c(O)c1            1.08
13  C=C(C)[C@@H]1CCC(C)=C[C@H]1c1c(O)cc(CCCCC)c(C(=O)O)c1O           0.418

* * *

Experiment Summary: Stability of cannabinoid and Vitamin E components of Beverage 2 (AB Red) stored at 8° C. and 21-25° C., LCMSMS over 570 days
Experimental Context: 21-25° C., 15 days
Output label 1 for Stability of Cannabinoids in AB Red not less than 3 µg/mL; output label 0 otherwise.

> print(dat)
                                   molecule    group
1  CCCCCc1cc2c(c(O)c1C(=O)O)[C@@H]1C=C(C)CC[C@H]1C(C)(C)O2 [D9 THCA, delta-9-tetrahydrocannabinolic acid]  label 0
2  C=C(C)[C@@H]1CCC(C)=C[C@H]1c1c(O)cc(CCCCC)c(C(=O)O)c1O [CBDA, cannabidiolic acid]  label 0
3  CCCCCc1cc(O)c2c(c1)OC(C)(C)c1ccc(C)cc1-2 [CBN, cannabinol]  label 0
4  CCCCCc1cc(O)c2c(c1)OC(C)(CCC=C(C)C)C=C2 (centres unmarked) [CBC, cannabichromene]  label 0
5  CCCCCc1cc(O)c2c(c1)OC(C)(C)[C@@H]1CCC(C)=C[C@@H]21 [D9 THC, delta-9-tetrahydrocannabinol, reference compound]  label 1

* * *

Experiment Summary: Stability of cannabinoid and Vitamin E components of Beverage 1 (AB White) stored at 8° C. and 21-25° C., LCMSMS over 570 days
Assay type: physicochemical
Experimental Context: beverage stored at 8° C., day 1
Criterion: Stability in AB White, 8° C. (content by LCMSMS) strictly less than 2 µg/mL. Met: label 1. Not met: label 0.

> print(dat)
                                   molecule    group
1  CCCCCc1cc(O)c2c(c1)OC(C)(CCC=C(C)C)C=C2 (stereo not shown)  label 1
2  C=C(C)[C@@H]1CCC(C)=C[C@H]1c1c(O)cc(CCCCC)c(C(=O)O)c1O  label 1
3  CCCCCc1cc(O)c2c(c1)OC(C)(C)c1ccc(C)cc1-2  label 0
4  C=C(C)[C@@H]1CCC(C)=C[C@H]1c1c(O)cc(CCCCC)cc1O [CBD, cannabidiol, reference compound]  label 0
5  CCCCCc1cc(O)c2c(c1)OC(C)(C)[C@@H]1CCC(C)=C[C@@H]21 [D9 THC, delta-9-tetrahydrocannabinol, reference compound]  label 0
6  CCCCCc1cc2c(c(O)c1C(=O)O)[C@@H]1C=C(C)CC[C@H]1C(C)(C)O2 [D9 THCA, delta-9-tetrahydrocannabinolic acid]  label 1
7  CCCCCc1cc(O)c2c(c1)OC1(C)CCC3C1C2C3(C)C (stereo not shown)  label 1

* * *

Experiment Summary: Stability of cannabinoid and Vitamin E components of Beverage 2 (AB Red) stored at 8° C. and 21-25° C., LCMSMS over 570 days
Experimental Context: 8° C., 17 days
Reported Endpoint: Stability of Cannabinoids in AB Red (µg/mL)

> print(dat)
                                   molecule  measure.unit  recorded.value
1  CCCCCc1cc(O)c2c(c1)OC(C)(C)c1ccc(C)cc1-2 [CBN, cannabinol]         µg/mL            2.80
2  CCCCCc1cc2c(c(O)c1C(=O)O)[C@@H]1C=C(C)CC[C@H]1C(C)(C)O2 [D9 THCA, delta-9-tetrahydrocannabinolic acid]         µg/mL            1.34
3  CCCCCc1cc(O)c2c(c1)OC1(C)CCC3C1C2C3(C)C (stereo not drawn) [CBL, cannabicyclol]         µg/mL           0.514
4  C=C(C)[C@@H]1CCC(C)=C[C@H]1c1c(O)cc(CCC)cc1O [CBDV, cannabidivarin]         µg/mL           0.195
5  CCCCCc1cc(O)c2c(c1)OC(C)(CCC=C(C)C)C=C2 (stereo not drawn) [CBC, cannabichromene]         µg/mL           0.282
6  CCCc1cc(O)c2c(c1)OC(C)(C)[C@@H]1CCC(C)=C[C@@H]21 [THCV, delta-9-tetrahydrocannabivarin]         µg/mL            3.12
7  CCCCCc1cc(O)c2c(c1)OC(C)(C)[C@@H]1CCC(C)=C[C@@H]21 [D9 THC, delta-9-tetrahydrocannabinol, reference compound]         µg/mL            12.6
8  CCCCCc1cc(O)c(C/C=C(\C)CCC=C(C)C)c(O)c1 [CBG, cannabigerol]         µg/mL            4.77
9  C=C(C)[C@@H]1CCC(C)=C[C@H]1c1c(O)cc(CCCCC)c(C(=O)O)c1O [CBDA, cannabidiolic acid]         µg/mL            1.64

* * *

Recorded Stability in Powder Concentrate (content by LCMSMS) values for a group of molecules are listed next.
Format: physicochemical
Experimental Context: stored at room temperature (21-25° C.), day 360
Reported Endpoint: Stability in Powder Concentrate (content by LCMSMS)

> print(dat)
                                   molecule     recorded.value
1  C=C(C)[C@@H]1CCC(C)=C[C@H]1c1c(O)cc(CCC)cc1O  0.050 mg/g powder
2  C=C(C)[C@@H]1CCC(C)=C[C@H]1c1c(O)cc(CCCCC)c(C(=O)O)c1O  0.413 mg/g powder
3  CCCCCc1cc(O)c2c(c1)OC1(C)CCC3C1C2C3(C)C (stereo not drawn)  0.050 mg/g powder
4  C=C(C)[C@@H]1CCC(C)=C[C@H]1c1c(O)cc(CCCCC)cc1O [CBD, cannabidiol, reference compound]   5.97 mg/g powder
5  CCCc1cc(O)c2c(c1)OC(C)(C)[C@@H]1CCC(C)=C[C@@H]21 [THCV, delta-9-tetrahydrocannabivarin]  0.668 mg/g powder
6  Cc1c(C)c2c(c(C)c1O)CC[C@@](C)(CCC[C@H](C)CCC[C@H](C)CCCC(C)C)O2   4.83 mg/g powder

* * *

Recorded Stability in AB White, 8° C. (content by LCMSMS) values for a group of compounds are listed next.
Experiment Summary: Stability of cannabinoid and Vitamin E components of Beverage 1 (AB White) stored at 8° C. and 21-25° C., LCMSMS over 570 days
Format: physicochemical
Experimental Context: beverage stored at 8° C., day 420
Reported Endpoint: Stability in AB White, 8° C. (content by LCMSMS)

> print(dat)
                                    compound  recorded.value
 1  CCCc1cc(O)c2c(c1)OC(C)(C)[C@@H]1CCC(C)=C[C@@H]21 [THCV, delta-9-tetrahydrocannabivarin]      3.49 µg/mL
 2  CCCCCc1cc(O)c2c(c1)OC(C)(C)[C@@H]1CCC(C)=C[C@@H]21 [D9 THC, delta-9-tetrahydrocannabinol, reference compound]     11.77 µg/mL
 3  CCCCCc1cc2c(c(O)c1C(=O)O)[C@@H]1C=C(C)CC[C@H]1C(C)(C)O2 [D9 THCA, delta-9-tetrahydrocannabinolic acid]     0.916 µg/mL
 4  C=C(C)[C@@H]1CCC(C)=C[C@H]1c1c(O)cc(CCCCC)cc1O [CBD, cannabidiol, reference compound]     27.50 µg/mL
 5  CCCCCc1cc(O)c2c(c1)OC(C)(C)c1ccc(C)cc1-2      2.70 µg/mL
 6  CCCCCc1cc(O)c2c(c1)OC1(C)CCC3C1C2C3(C)C (stereo not shown)     0.526 µg/mL
 7  C=C(C)[C@@H]1CCC(C)=C[C@H]1c1c(O)cc(CCCCC)c(C(=O)O)c1O      1.67 µg/mL
 8  CCCCCc1cc(O)c2c(c1)OC(C)(CCC=C(C)C)C=C2 (stereo not shown)     0.307 µg/mL
 9   CCCCCc1cc(O)c(C/C=C(\C)CCC=C(C)C)c(O)c1      4.66 µg/mL
10  C=C(C)[C@@H]1CCC(C)=C[C@H]1c1c(O)cc(CCC)cc1O     0.144 µg/mL
